// data source = patent US20140357633A1

pIC50: −log10 of the molar value.
BCL-2 (binding to BAD peptide) (Homo sapiens): reported pIC50 for various molecules.
Sequence (P10415 whole entry): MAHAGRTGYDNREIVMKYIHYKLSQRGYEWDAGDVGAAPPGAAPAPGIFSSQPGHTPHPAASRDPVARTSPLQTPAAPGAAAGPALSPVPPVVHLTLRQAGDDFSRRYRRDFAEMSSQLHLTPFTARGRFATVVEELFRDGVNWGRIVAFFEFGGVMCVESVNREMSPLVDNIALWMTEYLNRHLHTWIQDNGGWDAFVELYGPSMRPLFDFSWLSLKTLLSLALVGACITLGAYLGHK

Recorded results for 5 molecules are shown here.
{"smi": "CCCCN(CCCC)C(=O)c1cc(C)n(-c2ccc(NC(=O)CCNC(C)=O)cc2C(=O)N2Cc3ccccc3C[C@H]2CO)n1", "target_desc": "BCL-2 (binding to BAD peptide) (Homo sapiens)", "pIC50": 5.96}
{"smi": "CCCCN(CCCC)C(=O)c1cc(C)n(-c2ccc(NC(=O)c3cn(C)nc3C(F)(F)F)cc2C(=O)N2Cc3ccccc3C[C@H]2CO)n1", "target_desc": "BCL-2 (binding to BAD peptide) (Homo sapiens)", "pIC50": "6.01 to 6.11"}
{"smi": "CCCCN(CCCC)C(=O)c1cc(C)n(-c2ccc(NC(=O)c3ccc(Oc4ccccc4)nc3)cc2C(=O)N2Cc3ccccc3C[C@H]2CO)n1", "target_desc": "BCL-2 (binding to BAD peptide) (Homo sapiens)", "pIC50": "5.58 to 5.61"}
{"smi": "CCCCN(CCCC)C(=O)c1cc(C)n(-c2ccc(NC(=O)OCC(C)C)cc2C(=O)N2Cc3ccccc3C[C@H]2CO)n1", "target_desc": "BCL-2 (binding to BAD peptide) (Homo sapiens)", "pIC50": "6.22 to 6.30"}
{"smi": "CCCCN(CCCC)C(=O)c1cc(C)n(-c2ccc(NC(=O)c3cn4ccsc4n3)cc2C(=O)N2Cc3ccccc3C[C@H]2CO)n1", "target_desc": "BCL-2 (binding to BAD peptide) (Homo sapiens)", "pIC50": "6.40 to 6.44"}

# evaluate next
Jot down pIC50 (BCL-2 (binding to BAD peptide) (Homo sapiens)) of CCCCN(CCCC)C(=O)c1cc(C)n(-c2ccc(NC(=O)OC)cc2C(=O)N2Cc3ccccc3C[C@H]2CO)n1 .
6.05 to 6.21

* * *

Below, each entry is listed alongside its reported IC50.
target_desc: BCL-2 (binding to BAD peptide) (Homo sapiens)

Recorded results for 4 compounds are shown here.
{"compound": "CCCCN(CCCC)C(=O)c1cc(C)n(-c2ccc(NC(=O)c3oc4ccccc4c3C)cc2C(=O)N2Cc3ccccc3C[C@H]2CO)n1", "target_desc": "BCL-2 (binding to BAD peptide) (Homo sapiens)", "IC50": "0.908 to 1.11 µM"}
{"compound": "CCCCN(CCCC)C(=O)c1cc(C)n(-c2ccc(NC(=O)Cc3ccc(OC)c(Br)c3)cc2C(=O)N2Cc3ccccc3C[C@H]2CO)n1", "target_desc": "BCL-2 (binding to BAD peptide) (Homo sapiens)", "IC50": "0.0278 to 0.0366 µM"}
{"compound": "CCCCN(CCCC)C(=O)c1cc(C)n(-c2ccc(NC(=O)c3csc(-c4cccc(Cl)c4Cl)n3)cc2C(=O)N2Cc3ccccc3C[C@H]2CO)n1", "target_desc": "BCL-2 (binding to BAD peptide) (Homo sapiens)", "IC50": "2.63 to 2.75 µM"}
{"compound": "CCCCN(CCCC)C(=O)c1cc(C)n(-c2ccc(NC(=O)C(CC(N)=O)c3ccccc3)cc2C(=O)N2Cc3ccccc3C[C@H]2CO)n1 (stereo partly drawn)", "target_desc": "BCL-2 (binding to BAD peptide) (Homo sapiens)", "IC50": "0.0821 to 0.0888 µM"}

Jot down IC50 (BCL-2 (binding to BAD peptide) (Homo sapiens)) of CCCCN(CCCC)C(=O)c1cc(C)n(-c2ccc(NC(=O)C(CC(=O)N3CCCC3)c3ccccc3)cc2C(=O)N2Cc3ccccc3C[C@H]2CO)n1 (stereo partly drawn) .
0.0619 to 0.0668 µM

Jot down IC50 (BCL-2 (binding to BAD peptide) (Homo sapiens)) of CCCCN(CCCC)C(=O)c1cc(C)n(-c2ccc(NC(=O)COc3ccc([N+](=O)[O-])cc3)cc2C(=O)N2Cc3ccccc3C[C@H]2CO)n1 .
2.39 to 2.67 µM
